Recorded values, source ChEMBL document CHEMBL1201862.

Test system: U-251
Experiment: NCI tumour cell line growth inhibition, 48 h
Calls of active or inactive are those of the source. Cut-off read from the data, not from the text of the source: active = GI50 up to about 1.1 µM and inactive = higher.
Would you mind answering with one of these outcomes? active, inactive

Check out these entries, answers already filled in.
compound	target of assay	label class
Nc1ccccc1C(=O)/C=C/c1ccccc1O	U-251	inactive
CCCn1c(SCCSc2c3ccccc3c(-c3nc(F)nc(F)n3)n2CCC)c2ccccc2c1-c1nc(F)nc(F)n1	U-251	inactive
CCCN(CCC)C(=O)Cc1c2n(c3ccccc13)CCCc1ccccc1-2	U-251	inactive
CC1CCc2c(sc3ncnc(N/N=C/c4ccc(Cl)c(Cl)c4)c23)C1 (stereo not given)	U-251	inactive
O=C1c2ccccc2C(=O)c2c(Nc3ccc4c5c(cccc35)C(=O)c3ccccc3-4)cccc21	U-251	inactive

Prompt line: Each compound tested received a call. Report the one for COc1ccc2c(c1)C1Oc3ccccc3CC1CO2 (stereo not given) .
Response line: inactive

Prompt line: What did the test return for CC(=O)NC(Cc1ccsc1)C(=O)O (stereo not given) ?
Response line: inactive

Prompt line: Tell me the recorded outcome of this test for CC1(C)OC2COC3(CNO)OC(C)(C)OC3C2O1 (stereo not given) .
Response line: inactive

Prompt line: Identify the outcome logged in this assay for the compound shown: COc1ccc(-n2nnc3c(C#N)c(-c4ccccc4)c(C)n3c2=O)cc1
Response line: inactive

Prompt line: So what was the verdict on O=[PH](O)c1ccsc1 in this test?
Response line: inactive

====

Provide the reported GI50 of each item.
System: XF498
Assay: NCI tumour cell line growth inhibition, 48 h
Activity calls are given as the source filed them. No stated cut-off is given here; in the data, active = GI50 up to about 1.1 µM and inactive = higher.

Worked set:
compound	meas value
CCCCCCCC/C=C1\CCC(CN(C)C)C1=O (stereo unspecified)	6.22 µM (inactive)
C[C@@H]1C[C@@H]2C(=O)N(c3ccccc3)C(=O)[C@@H]2c2[nH]c3ccc(Br)cc3c21	26.1 µM (inactive)
COC(=O)C(=O)C(C(=O)OC)C(=O)C(=O)Nc1cc(Cl)c(C)cc1S(=O)(=O)O (stereo unspecified)	> 100 µM (inactive)
O=C(COc1ccccc1Cl)N1N=C(c2ccc(Cl)cc2)CC1(O)c1ccccc1 (stereo unspecified)	> 100 µM (inactive)
CC1=C2C(=CO[C@H](C)[C@H]2C)C(O)=C(C(=O)O)C1=O [CITRININ]	5.55 µM (inactive)
CCOC(=O)C(NC(=O)c1nc[nH]c1[N+](=O)[O-])C(C)C (stereo unspecified)	19.9 µM (inactive)
CCOC(=O)NC(=O)c1cn(CCNCCO)c(=O)[nH]c1=O	> 100 µM (inactive)
O=c1ncccn1[C@@H]1O[C@H](CO)[C@@H](O)[C@@H]1F	> 100 µM (inactive)

Answer for every listed entry: what is its GI50? The entries follow.
1. CCc1cccc(C)c1NS(=O)(=O)c1ccccc1
2. CN(C)CN(C)c1nc(N(C)C)nc(N(C)C)n1
3. COc1cc(Nc2nc3cc(C(F)(F)F)ccc3nc2-c2ccccc2)cc(OC)c1OC

Response line:
["> 100 µM (inactive)", "> 100 µM (inactive)", "32.5 µM (inactive)"]

====

Please respond with reported GI50 for every item in the list.
System: MDA-MB-231
Test: NCI tumour cell line growth inhibition, 48 h
Active and inactive are the calls of the source. Cut-off read from the data, not from the text of the source: active = GI50 up to about 1.1 µM and inactive = higher.

Here's what some known entries look like.
molecule	endpoint	meas value
O=C(Nc1ccc2ccccc2c1)Nn1cnnc1	GI50	> 100 µM (inactive)
[N-]=[N+]=CC(=O)CCC(=O)N(c1ccccc1)c1ccccc1	GI50	> 10 µM (inactive)
Oc1ccc(C(c2ccc(O)cc2)c2ccc(O)cc2)cc1	GI50	16.3 µM (inactive)

Quick request: GI50 for each listed item, please.
1. Cc1ccc(/C=N/Nc2nncc3ccccc23)s1
2. COC(=O)/C=C\C(C#N)(C#N)/N=C/c1ccccc1
3. C[C@]12CC[C@H](O)CC1=CC[C@@H]1C2CC[C@]2(C)Nc3c(cnn3-c3ccc(F)cc3)CC12 (some centres not stated)

Response line:
33 µM (inactive)
15.6 µM (inactive)
> 41.8 µM (inactive)

# batch: return GI50 for each of the 3 molecules below
1. COC(=O)C1=CC2CCCC1(O)C(C(C)=O)C2 (configuration not stated)
2. C/C(=C\c1ccccc1)C(=O)NCc1ccc(C(=O)NCCc2ccccc2)cc1
3. CC(=O)c1c2c(cc3c1CC1(Cc4cc5c(cc4C1)CCCC5)C3)CCCC2

Response line:
["46.6 µM (inactive)", "> 43.2 µM (inactive)", "> 100 µM (inactive)"]

For each of the items listed, what is its GI50?
1. CCOC(=O)CCCn1nnc(C(=O)OCC)c1C(=O)OCC
2. COc1ccccc1C(C1=C(O)COC1=O)c1cc2c(cc1OC(C)=O)OCO2 (configuration not stated)
3. COC(=O)c1cc(C)n2c1CS[C@@H]2c1ccccc1

Response line:
["> 100 µM (inactive)", "> 100 µM (inactive)", "57.4 µM (inactive)"]

====

Test system: OVCAR-4
Assay: NCI tumour cell line growth inhibition, 48 h
The source made the active and inactive calls. Cut-off read from the data, not from the text of the source: active = GI50 up to about 1.1 µM and inactive = higher. Residues, ends and D or L forms follow the SMILES beside them. *: point of attachment. Boc = CC(C)(C)OC(=O)*
Lab note: assign the record to one of 1 (active), -1 (inactive)

molecule	label class
Cc1cnc(SCCN2CCN(C)CC2)nc1-c1cc2ccccc2s1	-1
CC1=NN(c2nc(N)nc(CSc3cc(Cl)c(C)cc3S(N)(=O)=O)n2)C(C)(C)C1	-1
COC(=O)C(Cc1c[nH]c2ccccc12)NC(=O)C(Cc1c[nH]c2ccccc12)NC(=O)C(Cc1c[nH]c2ccccc12)NC(=O)C(Cc1c[nH]c2ccccc12)NC(=O)C(Cc1c[nH]c2ccccc12)NC(=O)C(Cc1c[nH]c2ccccc12)NC(=O)OC(C)(C)C (configuration not stated) (Boc-WWWWWW-OMe; configuration not given here)	-1
Nc1ncnc2c1nc(-c1ccccc1)n2C1OC(CO)C(O)C1O (configuration not stated)	-1
CC(=O)Oc1c2c(c(CC=C(C)C)c3c1C(=O)C1=C[C@@H]4CC5C(C)(C)OC(C/C=C(/C)C(=O)O)(C4=O)[C@@]15O3)OC(C)(CCC=C(C)C)C=C2 (some centres not stated)	1

Prompt line: // outcome(item) with item = O=C1C=C(OCCCCl)C(=O)c2c(O)ccc(O)c21
Response line: -1

Prompt line: Can you look up the reported call for N=C(N)c1ccc(/C=C/c2ccc(C(=N)N)cc2)cc1 for me?
Response line: -1

====

System: K562
Assay: NCI tumour cell line growth inhibition, 48 h
The source made the active and inactive calls. No stated cut-off is given here; in the data, active = GI50 up to about 1.1 µM and inactive = higher.
endpoint: GI50

Examples from the recorded data:
compound	meas value
Nc1nc(O)nc2snnc12	7.26 µM (inactive)
CC(=O)NNc1nc(C)c(C(=O)NNC(=O)C(=O)Nc2nc3ccc([N+](=O)[O-])cc3s2)s1	25 µM (inactive)
O=C(O)c1ccccc1NS(=O)(=O)c1ccc(Cl)cc1	> 100 µM (inactive)
O=C1Nc2ccccc2C1Cc1ccccc1 (stereo unspecified)	> 100 µM (inactive)

Can you give me GI50 for all of these, one by one?
1. CCOC(=O)C1=CN/C(=C(/C)C(=O)OC)SC1C(=O)OCC (stereo unspecified)
2. COc1ccc(/C(=C/n2ccnc2)C(O)c2ccc(OC)c(OC)c2)cc1OC (stereo unspecified)

Response line:
1. 17.5 µM (inactive)
2. 37.2 µM (inactive)

====

Tested on: MDA-MB-231
Assay: NCI tumour cell line growth inhibition, 48 h
Calls of active or inactive are those of the source. No stated cut-off is given here; in the data, active = GI50 up to about 1.1 µM and inactive = higher. Non-standard residues stand in square brackets, D forms with d. Residues, ends and D or L forms follow the SMILES beside them. *: point of attachment. Phe(4-NO2) = N[CH](Cc1ccc([N+](=O)[O-])cc1)C(=O)O; Boc = CC(C)(C)OC(=O)*
I'd be grateful if you could share measured GI50 for these entries.

// solved cases for GI50 follow
compound	meas value
CC(=O)NCCc1c[nH]c2ccc(Cl)cc12	> 100 µM (inactive)
COC(=O)CCC(NC(=O)OC(C)(C)C)C(=O)NC(Cc1ccc([N+](=O)[O-])cc1)C(=O)NC(CCC(=O)OC)C(=O)OC (centres undefined) (Boc-Glu(OMe)-[Phe(4-NO2)]-Glu(OMe)-OMe; configuration not given here)	> 100 µM (inactive)
O=C1NC(=S)N/C1=C\c1ccc(Br)s1	> 100 µM (inactive)
COc1ccc(N2C(=O)c3cc([N+](=O)[O-])cnc3S2(=O)=O)cc1	> 100 µM (inactive)
O=c1[nH]nc(Cc2ccc(Cl)cc2)n1Nc1ccccc1	> 100 µM (inactive)

For each listed entry, give its GI50.
1. COC(=O)/C(=N\NC(=S)NN)C(C(=O)OC)C(=O)C(=O)Nc1cccc(C(F)(F)F)c1 (centres undefined)
2. O=S(=O)(O)c1cc(/N=N/c2cccc3ccccc23)c(O)c2ncccc12
3. Cc1cc(S(=O)(=O)NC2=Nc3ccccc3C(c3ccccc3)N2)c(S)cc1Cl (centres undefined)
4. COC(=O)C1=C(C(=O)OC)SC(=C2c3ccsc3-c3sccc32)S1
5. O=C1CC(=O)N(c2ccccc2)N1/C(=C/c1ccccc1)c1ccccc1

Response line:
> 100 µM (inactive)
> 100 µM (inactive)
95.3 µM (inactive)
> 100 µM (inactive)
10.6 µM (inactive)
